Experiment Description: log P determination by HPLC on reversed-phase columns (C 18), analogous to OECD Guideline 117
Format: physicochemical
Condition: reversed-phase HPLC column (C 18), pH 7.8, method [b]; read-out: logP[b]
Description: The log P values were determined analogously to OECD Guideline 117 (EC Directive 92/69/EEC) by HPLC (high-performance liquid chromatography) using reversed-phase columns (C 18), by the following methods: [a] […] Calibration is effected with solutions of a homologous series of unbranched alkan-2-ones (having 3 to 16 carbon atoms) with known log P values (log P values determined on the basis of the retention times by linear interpolation between two successive alkanones).
List of chromatographic logP values.
Response field accepts a number only; no unit should be typed.

Some solved entries appear below for comparison.
| Compound | chromatographic logP |
| --- | --- |
| Cc1cc(F)c(N2C(=O)N(C(=O)NC3CC3)C(C)(C)C2=O)cc1SCC(F)(F)F [Ex. No. 74] | 3.72 |
| Cc1cc(F)c(N2C(=O)CN(C(=O)NCC(F)(F)F)C2=O)cc1[S+]([O-])CC(F)(F)F (stereo not drawn) [Ex. No. 36] | 2.41 |
| Cc1cc(F)c(N2C(=O)CN(C(=O)N3CCOCC3)C2=O)cc1[S+]([O-])CC(F)(F)F (stereo not drawn) [Ex. No. 125] | 1.79 |
| Cc1cc(F)c(N2C(=O)N(C(=O)NC3CC3)C(C)(C)C2=O)cc1[S+]([O-])CC(F)(F)F (stereo not drawn) [Ex. No. 84] | 2.73 |
| Cc1cc(F)c(N2C(=O)CN(C(=O)NC3CC3)C2=O)cc1[S+]([O-])CC(F)(F)F (stereo not drawn) [Ex. No. 3] | 2.12 |

Continue with the next compound.
Req: I am curious: what chromatographic logP value has been reported for CCNC(=O)N1C(=O)N(c2cc(SCC(F)(F)F)c(C)cc2F)C(=O)C1C (stereo not drawn) [Ex. No. 24] ?
Resp: 3.3

###

Experiment Description: log P determination by HPLC on reversed-phase columns (C 18), analogous to OECD Guideline 117
Assay type: physicochemical
Condition: method [a]
List of logP[a] values.
Response field accepts a number only; no unit should be typed.

| Molecule | Readout Value |
| --- | --- |
| Cc1cc(Cl)c(N2C(=O)CN(C(=O)NCC(F)(F)F)C2=O)cc1SCC(F)(F)F | 3.51 |

Req: I am curious: what logP[a] value has been reported for Cc1cc(F)c(N2C(=O)CN(C(=O)Nc3ccc(F)cc3)C2=O)cc1SCC(F)(F)F ?
Resp: 3.85

Req: I am curious: what logP[a] value has been reported for Cc1cc(Cl)c(N2C(=O)CN(C(=O)Nc3cccc(CC(F)(F)F)c3)C2=O)cc1[S+]([O-])CC(F)(F)F (racemic) ?
Resp: 3.68

Req: I am curious: what logP[a] value has been reported for Cc1cc(F)c(N2C(=O)CN(C(=O)N3CCS(=O)(=O)CC3)C2=O)cc1SCC(F)(F)F ?
Resp: 2.4

Req: I am curious: what logP[a] value has been reported for Cc1cc(F)c(N2C(=O)CN(C(=O)Nc3cccc(Cl)c3)C2=O)cc1[S+]([O-])CC(F)(F)F (stereo not shown) ?
Resp: 3.31

Req: I am curious: what logP[a] value has been reported for Cc1cc(C)c(N2C(=O)CN(C(=O)Nc3ccc(F)cc3)C2=O)cc1SCC(F)(F)F ?
Resp: 3.95

Req: I am curious: what logP[a] value has been reported for CCNC(=O)N1CC(=O)N(c2cc([S+]([O-])CC(F)(F)F)c(C)cc2F)C1=O (stereo not shown) ?
Resp: 2.05

###

Experiment Description: log P determination by HPLC on reversed-phase columns (C 18), analogous to OECD Guideline 117
Format: physicochemical
Condition: method [a]
Quantity Kind: logP[a]
Response field accepts a number only; no unit should be typed.

Some solved entries appear below for comparison.
| Compound | logP[a] |
| --- | --- |
| Cc1cc(Cl)c(N2C(=O)CN(C(=O)NC3CC3)C2=O)cc1[S+]([O-])CC(F)(F)F (stereo not drawn) | 2.38 |
| Cc1cc(C)c(N2C(=O)CN(C(=O)Nc3ccccn3)C2=O)cc1SCC(F)(F)F | 3.47 |
| Cc1cc(C)c(N2C(=O)CN(C(=O)Nc3cccc(Cl)c3)C2=O)cc1SCC(F)(F)F | 4.32 |
| Cc1cc(F)c(N2C(=O)CN(C(=O)Nc3cccc(CC(F)(F)F)c3)C2=O)cc1SCC(F)(F)F | 4.32 |
| CCC(C)NC(=O)N1CC(=O)N(c2cc([S+]([O-])CC(F)(F)F)c(C)cc2F)C1=O (stereo not drawn) | 2.70 |

Req: I am curious: what logP[a] value has been reported for Cc1cc(F)c(N2C(=O)C(C)N(C(=O)NC(C)C)C2=O)cc1SCC(F)(F)F (stereo not drawn) ?
Resp: 3.78

Req: I am curious: what logP[a] value has been reported for Cc1cc(C)c(N2C(=O)CN(C(=O)Nc3cccc(CC(F)(F)F)c3)C2=O)cc1SCC(F)(F)F ?
Resp: 4.43

Req: I am curious: what logP[a] value has been reported for Cc1cc(Cl)c(N2C(=O)CN(C(=O)NCC(C)C)C2=O)cc1SCC(F)(F)F ?
Resp: 3.93

Req: I am curious: what logP[a] value has been reported for Cc1cc(Cl)c(N2C(=O)CN(C(=O)Nc3cccc(Cl)c3)C2=O)cc1[S+]([O-])CC(F)(F)F (racemic) ?
Resp: 3.55

Req: I am curious: what logP[a] value has been reported for O=C(NC1CC1)N1CC(=O)N(c2cc([S+]([O-])CC(F)(F)F)c(Cl)cc2Cl)C1=O (racemic) ?
Resp: 2.61

Req: I am curious: what logP[a] value has been reported for Cc1cc(F)c(N2C(=O)C(C)N(C(=O)NC3CC3)C2=O)cc1SCC(F)(F)F (stereo not drawn) ?
Resp: 3.43

Req: I am curious: what logP[a] value has been reported for Cc1cc(F)c(N2C(=O)CN(C(=O)Nc3ccccn3)C2=O)cc1SCC(F)(F)F ?
Resp: 3.37

Req: I am curious: what logP[a] value has been reported for Cc1cc(F)c(N2C(=O)CN(C(=O)Nc3cccc(CC(F)(F)F)c3)C2=O)cc1[S+]([O-])CC(F)(F)F (stereo not drawn) ?
Resp: 3.45

Req: I am curious: what logP[a] value has been reported for Cc1cc(F)c(N2C(=O)C(C)N(C(=O)NCC(C)C)C2=O)cc1SCC(F)(F)F (racemic) ?
Resp: 3.99

Req: I am curious: what logP[a] value has been reported for Cc1cc(Cl)c(N2C(=O)CN(C(=O)Nc3ccccn3)C2=O)cc1SCC(F)(F)F ?
Resp: 3.55

Req: I am curious: what logP[a] value has been reported for COCCNC(=O)N1CC(=O)N(c2cc([S+]([O-])CC(F)(F)F)c(C)cc2F)C1=O (racemic) ?
Resp: 1.97

Req: I am curious: what logP[a] value has been reported for Cc1cc(C)c([S+]([O-])CC(F)(F)F)cc1N1C(=O)CN(C(=O)NC(C)(C)C)C1=O (stereo not drawn) ?
Resp: 2.90

Req: I am curious: what logP[a] value has been reported for Cc1cc(F)c(N2C(=O)CN(C(=O)NC(C)(C)C)C2=O)cc1SCC(F)(F)F ?
Resp: 3.84

Req: I am curious: what logP[a] value has been reported for Cc1cc(F)c(N2C(=O)CN(C(=O)NCc3ccccc3)C2=O)cc1[S+]([O-])CC(F)(F)F (stereo not drawn) ?
Resp: 2.77

Req: I am curious: what logP[a] value has been reported for CCNC(=O)N1CC(=O)N(c2cc(SCC(F)(F)F)c(C)cc2C)C1=O ?
Resp: 3.14

Req: I am curious: what logP[a] value has been reported for Cc1cc(C)c([S+]([O-])CC(F)(F)F)cc1N1C(=O)CN(C(=O)Nc2ccccn2)C1=O (racemic) ?
Resp: 2.46

Req: I am curious: what logP[a] value has been reported for O=C(Nc1cccc(C(F)(F)F)c1)N1CC(=O)N(c2cc(SCC(F)(F)F)c(Cl)cc2Cl)C1=O ?
Resp: 4.56

Req: I am curious: what logP[a] value has been reported for Cc1cc(C)c(N2C(=O)CN(C(=O)NC(C)C)C2=O)cc1SCC(F)(F)F ?
Resp: 3.48

Req: I am curious: what logP[a] value has been reported for Cc1cc(F)c(N2C(=O)C(C)N(C(=O)NC3CC3)C2=O)cc1[S+]([O-])CC(F)(F)F (stereo not drawn) ?
Resp: 2.46

Req: I am curious: what logP[a] value has been reported for O=C(NCc1ccccc1)N1CC(=O)N(c2cc([S+]([O-])CC(F)(F)F)c(Cl)cc2Cl)C1=O (racemic) ?
Resp: 3.23
